# TARGET OF ASSAY: HIPK2 (Homo sapiens, UniProt Q9H2X6)
# EXPERIMENTAL DETAILS: biochemical
# Parameters: species or system HEK293/K-562/placenta mixed human extract; Kinobeads chemoproteomic competition binding, quantified by TMT LC-MS/MS, dose response up to 20 uM
pIC50: −log10 of the molar value.
VALUE KIND: pIC50

Query the reported pIC50 for HIPK2 (Homo sapiens, UniProt Q9H2X6); item: COc1nc(N[C@H]2CC[C@H](NS(=O)(=O)CC(C)C)CC2)nc2[nH]nc(N3CCOC[C@H]3C)c12
≤ 4.70

---

# TARGET OF ASSAY: SGK3 (Homo sapiens)
# Sequence (Q96BR1 1-496): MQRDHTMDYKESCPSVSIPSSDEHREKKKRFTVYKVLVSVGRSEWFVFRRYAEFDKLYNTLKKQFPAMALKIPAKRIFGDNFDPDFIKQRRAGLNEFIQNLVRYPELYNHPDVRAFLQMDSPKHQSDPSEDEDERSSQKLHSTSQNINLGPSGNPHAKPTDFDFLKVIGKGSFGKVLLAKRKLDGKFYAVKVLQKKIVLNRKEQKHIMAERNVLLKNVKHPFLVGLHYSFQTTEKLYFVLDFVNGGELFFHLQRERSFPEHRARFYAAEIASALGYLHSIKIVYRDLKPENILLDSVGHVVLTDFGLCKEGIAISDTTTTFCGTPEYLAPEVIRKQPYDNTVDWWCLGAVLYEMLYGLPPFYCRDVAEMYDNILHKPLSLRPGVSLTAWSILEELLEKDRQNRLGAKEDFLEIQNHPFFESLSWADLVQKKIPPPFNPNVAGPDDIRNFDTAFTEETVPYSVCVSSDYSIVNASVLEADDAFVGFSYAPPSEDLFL
# EXPERIMENTAL DETAILS: biochemical
# Design: species or system HEK293/K-562/placenta mixed human extract; Kinobeads chemoproteomic competition binding, quantified by TMT LC-MS/MS, dose response up to 20 uM
VALUE KIND: IC50

Look up IC50: COc1ccccc1-c1n[nH]c2nc(N[C@H]3CC[C@H](NS(=O)(=O)CCC(F)(F)F)CC3)nc(OC)c12
≥ 20 µM

---

Target protein (sequence): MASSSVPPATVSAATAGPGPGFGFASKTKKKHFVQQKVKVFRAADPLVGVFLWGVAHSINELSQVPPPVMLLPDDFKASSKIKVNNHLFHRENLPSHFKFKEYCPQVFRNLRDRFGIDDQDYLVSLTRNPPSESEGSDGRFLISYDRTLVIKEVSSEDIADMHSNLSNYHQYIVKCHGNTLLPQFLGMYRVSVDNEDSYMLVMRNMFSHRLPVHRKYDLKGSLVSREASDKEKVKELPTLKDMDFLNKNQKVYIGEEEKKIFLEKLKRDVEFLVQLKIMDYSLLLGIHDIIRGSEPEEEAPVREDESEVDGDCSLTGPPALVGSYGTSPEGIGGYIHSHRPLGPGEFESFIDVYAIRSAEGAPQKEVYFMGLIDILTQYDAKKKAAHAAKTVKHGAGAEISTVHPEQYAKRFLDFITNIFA
pIC50: −log10 of the molar value.
VALUE KIND: pIC50

Item under review: COc1nc(N[C@H]2CC[C@H](NS(=O)(=O)CC(C)C)CC2)nc2[nH]nc(N3CCOC[C@H]3C)c12 . Reported pIC50?
≤ 4.70

---

# TARGET OF ASSAY: BUB1 (Homo sapiens)
# Sequence (O43683 whole entry): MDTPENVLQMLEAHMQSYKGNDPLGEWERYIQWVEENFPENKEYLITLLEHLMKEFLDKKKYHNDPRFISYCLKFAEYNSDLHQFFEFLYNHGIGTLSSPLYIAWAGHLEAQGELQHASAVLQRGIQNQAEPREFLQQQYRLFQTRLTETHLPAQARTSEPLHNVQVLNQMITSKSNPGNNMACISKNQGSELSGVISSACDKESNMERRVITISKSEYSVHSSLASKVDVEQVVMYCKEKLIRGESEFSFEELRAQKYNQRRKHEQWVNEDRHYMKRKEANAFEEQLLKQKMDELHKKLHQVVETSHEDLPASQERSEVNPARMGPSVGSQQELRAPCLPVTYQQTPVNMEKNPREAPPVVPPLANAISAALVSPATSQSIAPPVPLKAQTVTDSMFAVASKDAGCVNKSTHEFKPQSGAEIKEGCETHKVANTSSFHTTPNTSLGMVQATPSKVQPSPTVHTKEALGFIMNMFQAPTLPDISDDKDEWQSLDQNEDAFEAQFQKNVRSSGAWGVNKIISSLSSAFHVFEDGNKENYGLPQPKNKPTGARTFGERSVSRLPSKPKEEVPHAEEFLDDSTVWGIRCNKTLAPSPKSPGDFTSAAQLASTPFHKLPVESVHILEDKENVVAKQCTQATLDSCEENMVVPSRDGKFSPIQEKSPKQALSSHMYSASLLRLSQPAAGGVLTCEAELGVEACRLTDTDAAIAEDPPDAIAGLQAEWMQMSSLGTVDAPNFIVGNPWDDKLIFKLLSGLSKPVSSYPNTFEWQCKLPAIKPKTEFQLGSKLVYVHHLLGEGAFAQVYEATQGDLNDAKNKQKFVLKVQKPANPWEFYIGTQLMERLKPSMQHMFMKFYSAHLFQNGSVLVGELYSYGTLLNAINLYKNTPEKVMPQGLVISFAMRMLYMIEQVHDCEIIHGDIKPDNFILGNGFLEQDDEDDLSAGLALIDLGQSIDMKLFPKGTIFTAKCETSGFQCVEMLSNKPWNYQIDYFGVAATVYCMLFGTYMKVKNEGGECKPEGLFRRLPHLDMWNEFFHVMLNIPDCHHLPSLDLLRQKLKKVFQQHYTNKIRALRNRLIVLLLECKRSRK
# EXPERIMENTAL DETAILS: biochemical
# Design: species or system HEK293/K-562/placenta mixed human extract; Kinobeads chemoproteomic competition binding, quantified by TMT LC-MS/MS, dose response up to 20 uM
pIC50: −log10 of the molar value.
VALUE KIND: pIC50

What measured pIC50 is associated with COc1nc(N[C@H]2CC[C@H](NS(=O)(=O)CC(C)C)CC2)nc2[nH]nc(N3CCOC[C@H]3C)c12 on BUB1 (Homo sapiens)?
≤ 4.70

---

pIC50: −log10 of the molar value.
VALUE KIND: pIC50

Provide value of pIC50 for this record tested with CDC7 (Homo sapiens): COc1ccccc1-c1n[nH]c2nc(N[C@H]3CC[C@H](NS(=O)(=O)CCC(F)(F)F)CC3)nc(OC)c12
≤ 4.70

---

# TARGET OF ASSAY: PDPK1 (Homo sapiens)
# EXPERIMENTAL DETAILS: biochemical
# Set-up: species or system HEK293/K-562/placenta mixed human extract; Kinobeads chemoproteomic competition binding, quantified by TMT LC-MS/MS, dose response up to 20 uM
VALUE KIND: IC50

Reported IC50, compound COc1ccccc1-c1n[nH]c2nc(N[C@H]3CC[C@H](NS(=O)(=O)CCC(F)(F)F)CC3)nc(OC)c12 : ____
≥ 20 µM

---

# TARGET OF ASSAY: MAPK1 (Homo sapiens)
# Sequence (P28482 whole entry): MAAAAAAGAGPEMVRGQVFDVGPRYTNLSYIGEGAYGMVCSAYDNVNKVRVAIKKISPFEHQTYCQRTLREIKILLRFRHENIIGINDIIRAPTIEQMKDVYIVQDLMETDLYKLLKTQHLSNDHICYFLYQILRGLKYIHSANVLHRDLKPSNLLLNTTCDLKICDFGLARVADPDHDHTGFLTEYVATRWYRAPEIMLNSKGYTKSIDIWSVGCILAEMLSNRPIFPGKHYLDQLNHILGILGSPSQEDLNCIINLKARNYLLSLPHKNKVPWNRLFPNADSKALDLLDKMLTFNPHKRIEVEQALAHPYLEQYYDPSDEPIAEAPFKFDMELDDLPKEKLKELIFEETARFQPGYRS
# EXPERIMENTAL DETAILS: biochemical
# Design: species or system HEK293/K-562/placenta mixed human extract; Kinobeads chemoproteomic competition binding, quantified by TMT LC-MS/MS, dose response up to 20 uM
pIC50: −log10 of the molar value.
VALUE KIND: pIC50

Enter reported pIC50 observed with MAPK1 (Homo sapiens) for COc1ccccc1-c1n[nH]c2nc(N[C@H]3CC[C@H](NS(=O)(=O)CCC(F)(F)F)CC3)nc(OC)c12 [compound 31]
≤ 4.70

---

# TARGET OF ASSAY: CSNK2A1 (Homo sapiens)
# Sequence (P68400 whole entry): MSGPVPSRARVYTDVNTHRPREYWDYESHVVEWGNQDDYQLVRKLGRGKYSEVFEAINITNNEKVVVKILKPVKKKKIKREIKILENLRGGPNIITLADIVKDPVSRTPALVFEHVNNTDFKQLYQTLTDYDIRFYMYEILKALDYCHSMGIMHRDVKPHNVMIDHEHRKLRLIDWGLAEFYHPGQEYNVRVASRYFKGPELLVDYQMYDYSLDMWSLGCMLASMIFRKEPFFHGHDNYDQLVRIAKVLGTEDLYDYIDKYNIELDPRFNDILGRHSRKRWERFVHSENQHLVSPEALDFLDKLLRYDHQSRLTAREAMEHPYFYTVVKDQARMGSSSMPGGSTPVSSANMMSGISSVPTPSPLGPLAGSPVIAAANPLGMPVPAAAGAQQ
# EXPERIMENTAL DETAILS: biochemical
# Set-up: species or system HEK293/K-562/placenta mixed human extract; Kinobeads chemoproteomic competition binding, quantified by TMT LC-MS/MS, dose response up to 20 uM
pIC50: −log10 of the molar value.
VALUE KIND: pIC50

State the recorded pIC50 for this entry: COc1ccccc1-c1n[nH]c2nc(N[C@H]3CC[C@H](NS(=O)(=O)CCC(F)(F)F)CC3)nc(OC)c12 [compound 31]
≤ 4.70

---

# TARGET OF ASSAY: PKN1 (Homo sapiens)
# Sequence (Q16512 whole entry): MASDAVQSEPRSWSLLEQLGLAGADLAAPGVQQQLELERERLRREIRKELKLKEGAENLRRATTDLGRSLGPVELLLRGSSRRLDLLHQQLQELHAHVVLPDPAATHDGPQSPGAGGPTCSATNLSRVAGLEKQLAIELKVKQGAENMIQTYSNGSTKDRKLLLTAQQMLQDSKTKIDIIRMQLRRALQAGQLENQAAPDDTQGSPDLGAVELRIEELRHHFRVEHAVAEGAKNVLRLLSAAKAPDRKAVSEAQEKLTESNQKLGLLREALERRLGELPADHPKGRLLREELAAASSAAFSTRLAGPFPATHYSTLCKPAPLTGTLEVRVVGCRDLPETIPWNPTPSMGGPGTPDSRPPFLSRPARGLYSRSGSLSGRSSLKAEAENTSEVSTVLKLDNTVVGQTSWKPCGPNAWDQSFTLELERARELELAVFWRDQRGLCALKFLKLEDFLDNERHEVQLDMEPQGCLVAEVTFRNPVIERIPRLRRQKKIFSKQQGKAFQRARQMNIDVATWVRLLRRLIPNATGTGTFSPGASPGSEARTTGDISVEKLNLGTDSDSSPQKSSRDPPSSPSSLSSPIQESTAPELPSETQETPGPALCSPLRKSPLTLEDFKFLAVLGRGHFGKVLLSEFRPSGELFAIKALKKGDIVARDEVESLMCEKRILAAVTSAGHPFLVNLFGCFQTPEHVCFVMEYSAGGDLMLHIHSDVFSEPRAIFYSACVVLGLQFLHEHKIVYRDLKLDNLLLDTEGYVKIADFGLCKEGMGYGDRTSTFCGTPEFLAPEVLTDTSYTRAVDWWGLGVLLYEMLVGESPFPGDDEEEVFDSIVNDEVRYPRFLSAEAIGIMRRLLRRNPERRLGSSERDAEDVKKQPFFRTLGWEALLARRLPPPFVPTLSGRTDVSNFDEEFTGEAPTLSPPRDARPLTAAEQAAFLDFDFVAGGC
# EXPERIMENTAL DETAILS: biochemical
# Set-up: species or system HEK293/K-562/placenta mixed human extract; Kinobeads chemoproteomic competition binding, quantified by TMT LC-MS/MS, dose response up to 20 uM
VALUE KIND: IC50

Field request: IC50 | item: COc1ccccc1-c1n[nH]c2nc(N[C@H]3CC[C@H](NS(=O)(=O)CCC(F)(F)F)CC3)nc(OC)c12
≥ 20 µM

---

# TARGET OF ASSAY: CDK7 (Homo sapiens)
# Sequence (P50613 whole entry): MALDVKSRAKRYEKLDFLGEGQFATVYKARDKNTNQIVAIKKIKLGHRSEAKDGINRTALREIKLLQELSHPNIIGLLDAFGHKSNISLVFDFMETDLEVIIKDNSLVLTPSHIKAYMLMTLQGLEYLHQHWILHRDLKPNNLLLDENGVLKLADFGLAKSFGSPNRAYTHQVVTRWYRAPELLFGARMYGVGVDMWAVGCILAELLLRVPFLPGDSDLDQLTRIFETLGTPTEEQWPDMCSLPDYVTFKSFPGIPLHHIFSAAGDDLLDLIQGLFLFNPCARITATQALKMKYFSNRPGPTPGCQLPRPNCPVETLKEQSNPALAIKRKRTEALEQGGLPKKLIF
# EXPERIMENTAL DETAILS: biochemical
# Set-up: species or system HEK293/K-562/placenta mixed human extract; Kinobeads chemoproteomic competition binding, quantified by TMT LC-MS/MS, dose response up to 20 uM
pIC50: −log10 of the molar value.
VALUE KIND: pIC50

What does the data say about its pIC50? Entry: COc1ccccc1-c1n[nH]c2nc(N[C@H]3CC[C@H](NS(=O)(=O)CCC(F)(F)F)CC3)nc(OC)c12
≤ 4.70

---

# TARGET OF ASSAY: UniProtKB Q15569
# Sequence (Q15569 whole entry): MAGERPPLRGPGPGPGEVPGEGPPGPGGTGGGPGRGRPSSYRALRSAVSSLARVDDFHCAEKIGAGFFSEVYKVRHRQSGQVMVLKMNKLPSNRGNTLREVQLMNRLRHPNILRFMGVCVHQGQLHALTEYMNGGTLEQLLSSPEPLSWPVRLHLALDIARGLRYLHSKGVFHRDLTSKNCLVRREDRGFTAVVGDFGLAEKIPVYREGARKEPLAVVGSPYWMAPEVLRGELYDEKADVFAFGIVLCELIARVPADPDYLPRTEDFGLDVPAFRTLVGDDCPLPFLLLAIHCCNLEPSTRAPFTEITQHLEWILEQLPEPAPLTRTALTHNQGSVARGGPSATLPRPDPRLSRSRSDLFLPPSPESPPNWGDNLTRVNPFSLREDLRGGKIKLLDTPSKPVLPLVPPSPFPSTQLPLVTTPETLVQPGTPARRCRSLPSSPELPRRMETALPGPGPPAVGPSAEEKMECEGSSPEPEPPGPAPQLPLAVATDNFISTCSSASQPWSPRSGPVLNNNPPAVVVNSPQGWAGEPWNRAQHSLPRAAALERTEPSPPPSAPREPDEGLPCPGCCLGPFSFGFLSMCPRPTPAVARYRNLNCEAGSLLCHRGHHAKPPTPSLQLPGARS
# EXPERIMENTAL DETAILS: biochemical
# Set-up: species or system HEK293/K-562/placenta mixed human extract; Kinobeads chemoproteomic competition binding, quantified by TMT LC-MS/MS, dose response up to 20 uM
VALUE KIND: IC50

Given the molecule COc1nc(N[C@H]2CC[C@H](NS(=O)(=O)CC(C)C)CC2)nc2[nH]nc(N3CCOC[C@H]3C)c12 [compound 39] , what is its reported IC50?
≥ 20 µM

---

# TARGET OF ASSAY: JAK2 (Homo sapiens, UniProt O60674)
# EXPERIMENTAL DETAILS: biochemical
# Parameters: species or system HEK293/K-562/placenta mixed human extract; Kinobeads chemoproteomic competition binding, quantified by TMT LC-MS/MS, dose response up to 20 uM
VALUE KIND: IC50

Under JAK2 (Homo sapiens, UniProt O60674): IC50 value of COc1ccccc1-c1n[nH]c2nc(N[C@H]3CC[C@H](NS(=O)(=O)CCC(F)(F)F)CC3)nc(OC)c12 ?
≥ 20 µM

---

# TARGET OF ASSAY: HIPK3 (Homo sapiens, UniProt Q9H422)
# Sequence (Q9H422 whole entry): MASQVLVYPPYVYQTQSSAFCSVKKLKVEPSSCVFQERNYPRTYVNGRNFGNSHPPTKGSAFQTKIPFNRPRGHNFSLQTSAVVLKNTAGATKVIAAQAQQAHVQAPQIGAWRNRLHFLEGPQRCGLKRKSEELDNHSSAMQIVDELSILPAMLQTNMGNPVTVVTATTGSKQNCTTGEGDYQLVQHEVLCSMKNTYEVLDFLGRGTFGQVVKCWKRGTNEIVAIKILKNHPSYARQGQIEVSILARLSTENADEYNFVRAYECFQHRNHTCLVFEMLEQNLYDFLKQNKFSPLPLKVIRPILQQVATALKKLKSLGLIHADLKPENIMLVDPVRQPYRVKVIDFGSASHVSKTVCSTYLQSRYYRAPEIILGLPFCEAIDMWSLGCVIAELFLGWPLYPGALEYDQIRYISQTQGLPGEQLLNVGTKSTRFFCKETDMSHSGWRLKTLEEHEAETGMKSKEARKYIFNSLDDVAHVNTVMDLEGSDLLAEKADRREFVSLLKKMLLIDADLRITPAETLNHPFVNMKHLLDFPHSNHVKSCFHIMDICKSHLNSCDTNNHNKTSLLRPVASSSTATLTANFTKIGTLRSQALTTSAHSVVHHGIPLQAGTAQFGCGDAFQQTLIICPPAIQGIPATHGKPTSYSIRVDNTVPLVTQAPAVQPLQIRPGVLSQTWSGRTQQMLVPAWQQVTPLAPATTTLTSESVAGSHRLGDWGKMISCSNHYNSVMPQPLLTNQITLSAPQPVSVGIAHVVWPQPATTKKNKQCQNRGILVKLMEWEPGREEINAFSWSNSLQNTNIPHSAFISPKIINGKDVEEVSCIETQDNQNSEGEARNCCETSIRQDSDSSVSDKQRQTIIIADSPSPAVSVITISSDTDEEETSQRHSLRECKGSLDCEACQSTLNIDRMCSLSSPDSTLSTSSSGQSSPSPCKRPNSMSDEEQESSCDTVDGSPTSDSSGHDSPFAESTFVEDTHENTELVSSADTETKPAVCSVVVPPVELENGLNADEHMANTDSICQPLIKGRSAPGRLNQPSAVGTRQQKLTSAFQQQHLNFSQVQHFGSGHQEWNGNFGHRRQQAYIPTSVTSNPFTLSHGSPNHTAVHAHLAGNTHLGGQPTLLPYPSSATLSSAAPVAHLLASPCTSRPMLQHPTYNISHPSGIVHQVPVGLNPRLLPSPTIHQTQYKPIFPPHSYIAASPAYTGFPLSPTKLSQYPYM
# EXPERIMENTAL DETAILS: biochemical
# Set-up: species or system HEK293/K-562/placenta mixed human extract; Kinobeads chemoproteomic competition binding, quantified by TMT LC-MS/MS, dose response up to 20 uM
pIC50: −log10 of the molar value.
VALUE KIND: pIC50

Which pIC50 is listed for COc1ccccc1-c1n[nH]c2nc(N[C@H]3CC[C@H](NS(=O)(=O)CCC(F)(F)F)CC3)nc(OC)c12 [compound 31] ?
≤ 4.70

---

# TARGET OF ASSAY: mTOR (Homo sapiens, UniProt P42345)
# EXPERIMENTAL DETAILS: biochemical
# Design: species or system HEK293/K-562/placenta mixed human extract; Kinobeads chemoproteomic competition binding, quantified by TMT LC-MS/MS, dose response up to 20 uM
pIC50: −log10 of the molar value.
VALUE KIND: pIC50

So what pIC50 did COc1ccccc1-c1n[nH]c2nc(N[C@H]3CC[C@H](NS(=O)(=O)CCC(F)(F)F)CC3)nc(OC)c12 get with mTOR (Homo sapiens, UniProt P42345)?
≤ 4.70

Values from paper PMC6407917
